Test system: Bacillus subtilis
Experiment: cleaved RNA product abundance (RNA/gDNA barcode ratio) relative to median wild-type variant (ratio to wild type); higher = more accumulation of the downstream cleavage product
Conditions: experiment (reporter, strain, medium): exp 4a: truncated aprE reporter, strain BJT201 with 2% xylose (RNase J1 expressed); cleavage site: cggR-gapA (positions -7 to +36 mutated)

Sequence Code: ACAGACGAAGGAGCCGCAAAGAAGTTAATAAGGCATGAATAATCCCTCAATATAAATATCTCTCACTTATTTAAA
cleaved RNA product abundance: 0.104
--
Sequence Code: ACAGACGAAGGAGCCGCAAAAAAGTTATTAACGGATGAATAATCCCTCAATATAAATATCTCTCACTTATTTAAA
cleaved RNA product abundance: 0.128
--
Sequence Code: ACAGACGAAGGAGCCGCAAAGAAATTATAAAGGGATGAATAATCCCTCAATATAAATATCTCTCACTTATTTAAA
cleaved RNA product abundance: 0.342
--
Sequence Code: ACAGACGAAGGAGCCGCAAAGAAGTTATTAAGGGAGGAATAATCTCTCAATATAAATATCTCTCACTTATTTAAA
cleaved RNA product abundance: 0.198
--
Sequence Code: ACAGACGAAGGAGCCGCAAAGAAGTTATTAAGGGATCATTAATCCCTCAATATAAATATCTCTCACTTATTTAAA
cleaved RNA product abundance: 1.08
--
Sequence Code: ACAGACGAAGGAGCCGCAAAGAAGTTATTAAGGGATGAATAATCCCTCAATACAAATATCTCTCACTTATTTAAA
cleaved RNA product abundance: 0.0683
--
Sequence Code: ACAGACGAAGGAGCCGCAAAGAAGTTATTAATGGATGAATAATGCCTCAATATAAATATCTCTCACTTATTTAAA
cleaved RNA product abundance: 0.105

----------
Test system: Bacillus subtilis
Assay: cleaved RNA product abundance (RNA/gDNA barcode ratio) relative to median wild-type variant (ratio to wild type); higher = more accumulation of the downstream cleavage product
Details: experiment (reporter, strain, medium): exp 4a: truncated aprE reporter, strain BJT201 with 2% xylose (RNase J1 expressed); cleavage site: cggR-gapA (positions -7 to +36 mutated)
Measured Endpoint: cleaved RNA product abundance

Sequence Code: ACAGACGAAGGAGCCGCAAAGAAGTTATTAAGGGATGAAAAATCCCTCAATATAAACATCTCTCACTTATTTAAA
Study System: Bacillus subtilis
Measured Endpoint: cleaved RNA product abundance
Measured Number: 0.772
//
Sequence Code: ACAGACGAAGGAGCCGCAAAGAAGTTATTAAGGGATGAATAATTCCACAATATAAATATCTCTCACTTATTTAAA
Study System: Bacillus subtilis
Measured Endpoint: cleaved RNA product abundance
Measured Number: 0.148
//
Sequence Code: ACAGACGAAGGAGCCGCAAAGAAGTTATTAGGGGATGAATAATCACTCAATATAAATATCTCTCACTTATTTAAA
Study System: Bacillus subtilis
Measured Endpoint: cleaved RNA product abundance
Measured Number: 0.112
//
Sequence Code: ACAGACGAAGGAGCCGCGAAGAAGTTATTAAGGGATTAATAATCCCTCAATATAAATATCTCTCACTTATTTAAA
Study System: Bacillus subtilis
Measured Endpoint: cleaved RNA product abundance
Measured Number: 1.19
//
Sequence Code: ACAGACGAAGGAGCCGCGAAGAAGTTATTAAGGGATGAATTATCCCTCAATATAAATATCTCTCACTTATTTAAA
Study System: Bacillus subtilis
Measured Endpoint: cleaved RNA product abundance
Measured Number: 0.548
//
Sequence Code: ACAGACGAAGGAGCCGCAAAGAAGTTATTAAGGGATGAATAATCCATCAATATAAGTATCTCTCACTTATTTAAA
Study System: Bacillus subtilis
Measured Endpoint: cleaved RNA product abundance
Measured Number: 0.0774
//
Sequence Code: ACAGACGAAGGAGCCGCAAAGAAGTTATTAAGGGATGACTAATCCCTCATTATAAATATCTCTCACTTATTTAAA
Study System: Bacillus subtilis
Measured Endpoint: cleaved RNA product abundance
Measured Number: 0.208
//
Sequence Code: ACAGACGAAGGAGCCGCAAAAAAGTTATTAAGAGATGAATAATCCGTCAATATAAATATCTCTCACTTATTTAAA
Study System: Bacillus subtilis
Measured Endpoint: cleaved RNA product abundance
Measured Number: 0.0894
//
Sequence Code: ACAGACGAAGGAGCCGCAAAGCAGTTATTAATGGATGAATAATCCCTCAATATAAATATCTCTCACTTATTTAAA
Study System: Bacillus subtilis
Measured Endpoint: cleaved RNA product abundance
Measured Number: 0.171
//
Sequence Code: ACAGACGAAGGAGCCGCAAAGAAGTTATAAAGAGATGAATAATCCCTCAATATAAATATCTCTCACTTATTTAAA
Study System: Bacillus subtilis
Measured Endpoint: cleaved RNA product abundance
Measured Number: 0.137
//
Sequence Code: ACAGACGAAGGAGCCGCAAAGAAGTTATTAAGGGATGAATAATCCTTCAAGATAAATATCTCTCACTTATTTAAA
Study System: Bacillus subtilis
Measured Endpoint: cleaved RNA product abundance
Measured Number: 0.162
//
Sequence Code: ACAGACGAAGGAGCCGCAAAGAAGTTGTTAAGGGATGAATAATCCCTCTATATAAATATCTCTCACTTATTTAAA
Study System: Bacillus subtilis
Measured Endpoint: cleaved RNA product abundance
Measured Number: 0.411
//
Sequence Code: ACAGACGAAGGAGCCGCAAAGTAGTTATTAAGGGTTGAATAATCCCTCAATATAAATATCTCTCACTTATTTAAA
Study System: Bacillus subtilis
Measured Endpoint: cleaved RNA product abundance
Measured Number: 0.364
//
Sequence Code: ACAGACGAAGGAGCCGCGAAGAAGTTATTAAGGGATGAATACTCCCTCAATATAAATATCTCTCACTTATTTAAA
Study System: Bacillus subtilis
Measured Endpoint: cleaved RNA product abundance
Measured Number: 0.528
//
Sequence Code: ACAGACGAAGGAGCCGCAAAGAAGTAATTCAGGGATGAATAATCCCTCAATATAAATATCTCTCACTTATTTAAA
Study System: Bacillus subtilis
Measured Endpoint: cleaved RNA product abundance
Measured Number: 0.325

Data provenance: the supplement of paper PMC11780869
